All figures here come from patent US20230242675A1.

Reported values of koff for individual entries
- target_desc: human PD-L1/His fusion protein (human, UniProt Q9NZQ7 19-239)
- Sequence (Q9NZQ7 19-239 limits assumed): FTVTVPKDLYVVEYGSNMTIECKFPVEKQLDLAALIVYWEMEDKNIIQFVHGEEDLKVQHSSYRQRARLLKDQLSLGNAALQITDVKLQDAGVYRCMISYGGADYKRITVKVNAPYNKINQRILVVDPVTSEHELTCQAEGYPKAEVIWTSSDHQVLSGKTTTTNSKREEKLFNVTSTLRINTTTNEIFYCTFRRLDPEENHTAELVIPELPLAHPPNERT
- assay_remarks: BLI Octet RED96, antibody on AHC sensor, single conc. PD-L1/His; test group 2
State the answer as a number, implicitly in s⁻¹.

These solved cases illustrate the format of a correct answer.
binder	koff (s⁻¹)
HuEM0005-86-12 (antibody, human IgG1, V domains shown) VH: EVQLVQSGAEVKKPGASVKVSCKASGYTFTTYGINWVRQAPGQGLEWIGYIYIGNGYTEYNEKFKGKATLTSDTSTSTAYMELSSLRSDDTAVYYCARDLMVIAPKTMDYWGQGTTVTVSS VL: DIQMTQSPSSVSASVGDRVTITCKASQDVGTAVAWYQQKPGKSPKLLIYWASTRHTGVPDRFTGSGSGTDFTLTISSLQPEDFATYFCQQYSSYPYTFGGGTKVEIK	0.0015
HuEM0005-86-7 (antibody, human IgG1, V domains shown) VH: EVQLVQSGAEVKKPGASVKVSCKASGYTFTTYGINWVRQAPGQGLEWIGYIYIGNGYTEYNEKFKGRVTLTSDPSTRTAYMELSSLRSDDTAVYYCARDLMVIAPKTMDYWGQGTTVTVSS VL: DIQMTQSPSSVSASVGDRVTITCKASQDVGTAVAWYQQKPGKAPKLLIYWASTRHTGVPDRFTGSGSGTDFTLTISSLQPEDFATYYCQQYSSYPYTFGGGTKVEIK	0.00131
HuEM0005-86-8 (antibody, human IgG1, V domains shown) VH: EVQLVQSGAEVKKPGASVKVSCKASGYTFTTYGINWVRQAPGQGLEWMGYIYIGNGYTEYNEKFKGRVTMTTDTSTSTAYMELSSLRSDDTAVYYCARDLMVIAPKTMDYWGQGTTVTVSS VL: DIQMTQSPSSVSASVGDRVTITCKASQDVGTAVAWYQQKPGKSPKLLIYWASTRHTGVPDRFTGSGSGTDFTLTISSLQPEDFATYFCQQYSSYPYTFGGGTKVEIK	0.00155
HuEM0005-86-11 (antibody, human IgG1, V domains shown) VH: EVQLVQSGAEVKKPGASVKVSCKASGYTFTTYGINWVRQAPGQGLEWIGYIYIGNGYTEYNEKFKGRVTLTSDTSTSTAYMELSSLRSDDTAVYYCARDLMVIAPKTMDYWGQGTTVTVSS VL: DIQMTQSPSSVSASVGDRVTITCKASQDVGTAVAWYQQKPGKSPKLLIYWASTRHTGVPDRFTGSGSGTDFTLTISSLQPEDFATYFCQQYSSYPYTFGGGTKVEIK	0.00131
HuEM0005-86-9 (antibody, human IgG1, V domains shown) VH: EVQLVQSGAEVKKPGASVKVSCKASGYTFTTYGINWVRQAPGQGLEWMGYIYIGNGYTEYNEKFKGRVTMTSDTSTSTAYMELSSLRSDDTAVYYCARDLMVIAPKTMDYWGQGTTVTVSS VL: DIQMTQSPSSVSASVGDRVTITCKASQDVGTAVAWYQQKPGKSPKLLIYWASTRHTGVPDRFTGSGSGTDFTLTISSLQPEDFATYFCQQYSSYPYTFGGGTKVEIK	0.0016
HuEM0005-86-10 (antibody, human IgG1, V domains shown) VH: EVQLVQSGAEVKKPGASVKVSCKASGYTFTTYGINWVRQAPGQGLEWMGYIYIGNGYTEYNEKFKGRVTLTSDTSTSTAYMELSSLRSDDTAVYYCARDLMVIAPKTMDYWGQGTTVTVSS VL: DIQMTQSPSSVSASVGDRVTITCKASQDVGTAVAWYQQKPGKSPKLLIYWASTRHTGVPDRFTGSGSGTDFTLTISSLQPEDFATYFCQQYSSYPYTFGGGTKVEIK	0.00157

Now examine the next entry.
Qu. Looking for the measured koff of EM0005-mAb86c (antibody, human IgG1, kappa, V domains shown, Chimeric full-length IgG1; also called EM0005-86c; EM0005-86C) VH: QVQLQQSGAELVRPGSSVKMSCKTSGYTFTTYGINWVKQRPGQGLEWIGYIYIGNGYTEYNEKFKGKATLTSDPSSRTAYMQLSSLTSEDSAIYFCARDLMVIAPKTMDYWGQGTSVTVSS VL: DIQMNQSHKFMSTSVGDRVSITCKASQDVGTAVAWYQQKPGQSPKLLIYWASTRHTGVPDRFTGGGSGTDFTLTISNVQSEDLADYFCQQYSSYPYTFGGGTKLEMKR , can you help?
Ans. 0.00179
